System: TK-10 renal
Experiment: NCI-60 one-dose screen, 48 h (100 = growth as untreated, 0 = no growth, -100 = all killed)
Settings: 10 µM unless noted
Compounds without any hit were thinned out: in the full panel of roughly 83,000, 20% have a hit.
Measured growth by item
// note: answer is a bare numeric in %

{"columns": ["MOLECULE", "UNIT LABEL", "ASSAY VALUE"],
 "data": [
  ["Cc1cc2cc3ccc(N(C)C)cc3nc2cc1N", "%", 9.89],
  ["O=C(c1nc2ccccc2[nH]1)C1C(c2ccc(Br)cc2)C2CC3CCCC[C@H]3N2[C@@]12C(=O)Nc1cc(Cl)ccc12 (some centres undefined)", "%", 40.7],
  ["Nc1ccccc1NC(=O)c1ccc(-n2nc(-c3ccccc3)c3ccccc32)cc1", "%", 94.1],
  ["CCOc1ccc(Nc2nc(-c3ccc4c(c3)NC(=O)CO4)cs2)cc1", "%", 85.5],
  ["CC1=C(C(=O)/C=C/c2ccc(N(C)C)cc2)C(c2ccccc2)NC(=S)N1 (centres undefined)", "%", 107]
]}

-- ask Consider the molecule O=C1NN(C(=O)c2ccccc2)C(c2ccc(Cl)c(Cl)c2)=C/C1=C\c1ccc([N+](=O)[O-])cc1 and give its measured growth.
-- reply 106

-- ask Follow-up item: O=C1Nc2cc(-c3ccc(NC(=O)c4ccccc4)cc3)ccc2/C1=C/c1ccc[nH]1
-- reply 113

-- ask Follow-up item: COC(=O)N[C@H]1CCc2c(Cl)c(OC)c(OC)c(OC)c2-c2ccc(SC)c(=O)cc21
-- reply 45.9

-- ask Follow-up item: Cc1cccc(-c2cn3ccnc3c(-c3ccc4ncn(Cc5ccccc5)c4c3)n2)c1
-- reply 110

-- ask Follow-up item: CCN(CC)c1ccc(/C=N/NC(=O)CSc2nc3ccccc3c(=O)n2CCc2ccc(S(N)(=O)=O)cc2)c(O)c1
-- reply 31.3

-- ask Follow-up item: CC(=O)N1c2ccccc2NC2=C(C(=O)NC2(C)C)C1c1ccco1 (centres undefined)
-- reply 98.4

-- ask Follow-up item: Cc1c2cc[nH]c(=O)c2c(C)c2c1[nH]c1cc(OCCN3CCN(C)CC3)ccc12
-- reply 27.5

----------
Tested on: OVCAR-3 ovarian
Test: NCI-60 one-dose screen, 48 h (100 = growth as untreated, 0 = no growth, -100 = all killed)
Details: 10 µM unless noted
About 83,000 compounds went through this panel and 20% of them were active in at least one assay; those are over-represented in the sample as a whole. The source made the active and inactive calls. Rule for the calls: active = growth percent below 10; inactive = the rest.
MEASUREMENT NAME: growth

Field: example entries. Status: answers known.
{"columns": ["SMILES REPR", "MEASUREMENT NAME", "ASSAY VALUE"],
 "data": [
  ["COc1ccc(/C=C/c2nc(Nc3ccc(S(=O)(=O)NC(C)=O)cc3)c3ccccc3n2)cc1", "growth", "95.5% (inactive)"],
  ["CC(=O)[C@@H]1CC[C@]2(C(N)=O)CC[C@]3(C)[C@H](CC[C@@H]4[C@@]5(C)CCCNC(C)(C)[C@@H]5CC[C@]43C)[C@@H]12", "growth", "89.3% (inactive)"],
  ["CCNC(=O)Oc1ccc(/C(=C(\\C)c2ccccc2)c2ccc(OCCCN(C)C)cc2)cc1", "growth", "85.3% (inactive)"],
  ["NC(=O)CSSCC(N)=O", "growth", "114% (inactive)"]
]}

Okay, next one:
-- ask Consider the molecule Cc1cccc(NC(=O)Nc2ccc(-n3cnc4cc(-c5ccc(O)cc5)ccc43)cc2)c1 and give its measured growth.
-- reply 20.4% (inactive)

Source listed as PubChem BioAssay (NCI).
